molecular target: BCL-2/BAK (Homo sapiens, UniProt P10415); test: Inhibitory activity for BCL-2/BAK binding (Cisbio BCL-2/BAK (BH3) binding assay kit)
Sequence (P10415 whole entry): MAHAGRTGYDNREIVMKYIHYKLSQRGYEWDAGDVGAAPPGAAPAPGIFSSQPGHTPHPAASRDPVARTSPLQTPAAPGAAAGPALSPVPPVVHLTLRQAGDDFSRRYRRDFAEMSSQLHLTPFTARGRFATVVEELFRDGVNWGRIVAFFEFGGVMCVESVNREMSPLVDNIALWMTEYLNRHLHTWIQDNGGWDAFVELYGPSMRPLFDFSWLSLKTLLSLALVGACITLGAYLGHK
This listing pairs compounds with measured pIC50.
Friendly reminder that pIC50 comes from taking -log10 of the concentration in mol/L.

Look over these answered cases.
INSERT INTO assay_data (compound, reported_property, value_measured) VALUES
  ('Cc1cc(C(F)(F)F)ccc1C1=C(CN2CCN(c3ccc(C(=O)NS(=O)(=O)c4ccc(NC[C@@H]5CCCO5)c([N+](=O)[O-])c4)c(Oc4cnc5[nH]ccc5c4)c3)CC2)CCC(C)(C)C1 [Compound 11-1]', 'pIC50', 8.75),
  ('Cc1cc(C(F)(F)F)ccc1C1=C(CN2CCN(c3ccc(C(=O)NS(=O)(=O)c4ccc(NC[C@@H]5CN(S(C)(=O)=O)CCO5)c([N+](=O)[O-])c4)c(Oc4cnc5[nH]ccc5c4)c3)CC2)CCC(C)(C)C1 [Compound 23-1]', 'pIC50', 8.96),
  ('COCC(=O)N1CCO[C@@H](CNc2ccc(S(=O)(=O)NC(=O)c3ccc(N4CCN(CC5=C(c6ccc(C(F)(F)F)cc6C)CC(C)(C)CC5)CC4)cc3Oc3cnc4[nH]ccc4c3)cc2[N+](=O)[O-])C1 [Compound 4-1]', 'pIC50', 9.15);

Next, consider the following compound.
**Query** Record lookup: for BCL-2/BAK (Homo sapiens, UniProt P10415), what pIC50 belongs to CC(=O)N1CCO[C@@H](CNc2ccc(S(=O)(=O)NC(=O)c3ccc(N4CCN(CC5=C(c6ccc(C(F)(F)F)cc6C)CC(C)(C)CC5)CC4)cc3Oc3cnc4[nH]ccc4c3)cc2[N+](=O)[O-])C1 [Compound 18-1] ?
**Result** 8.81
